SYSTEM_NAME: LISA314 V21 (Streptomyces avidinii, UniProt P22629, E125D/E140N/N47D/R108K/R127K/S51D/Y107S/Y46S)
Sequence (P22629 25-183 Y46S/N47D/S51D/Y107S/R108K/E125D/R127K/E140N limits assumed): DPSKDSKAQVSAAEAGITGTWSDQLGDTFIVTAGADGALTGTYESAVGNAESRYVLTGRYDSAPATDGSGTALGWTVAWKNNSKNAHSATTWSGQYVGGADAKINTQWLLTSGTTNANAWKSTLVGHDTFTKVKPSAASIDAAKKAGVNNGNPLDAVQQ
PROTOCOL_SUMMARY: Affinity analysis by SPR (Biacore assay), LISA314 V21
CONDITION_LABEL: SPR Biacore T100, protein immobilized on Sensor Chip NTA, equilibrium value analysis, read-out: Dissociation constant: KD
ENDPOINT_NAME: pKd
Hey, just a heads up that pKd is the negative log base 10 of the concentration in molar.

**Q:** // lookup pKd for `N[C@@H](CCCCNC(=O)CCCC[C@@H]1SC[C@@H]2NC(=O)N[C@@H]21)C(=O)O`
**A:** 6.46

---

SYSTEM_NAME: LISA314 WT
PROTOCOL_SUMMARY: Affinity analysis by SPR (Biacore assay), LISA314 WT
CONDITION_LABEL: SPR Biacore T100, protein immobilized on Sensor Chip NTA, equilibrium value analysis, read-out: Dissociation constant: KD
ENDPOINT_NAME: Kd (nM)
Enter your answer as a number in nM; do not include the unit.

**Q:** Given the entry N[C@@H](CCCCNC(=O)CCCC[C@@H]1SC[C@@H]2NC(=O)N[C@@H]21)C(=O)O [Biocytin, biocytin] , report its measured Kd.
**A:** 2.38
